# study.target: human HSL (Homo sapiens)
# Construct: overlapping PCR to generate a full length human HSL ORF with a 3′-His6 tag; His6 (C)
# Sequence (Q05469 whole entry): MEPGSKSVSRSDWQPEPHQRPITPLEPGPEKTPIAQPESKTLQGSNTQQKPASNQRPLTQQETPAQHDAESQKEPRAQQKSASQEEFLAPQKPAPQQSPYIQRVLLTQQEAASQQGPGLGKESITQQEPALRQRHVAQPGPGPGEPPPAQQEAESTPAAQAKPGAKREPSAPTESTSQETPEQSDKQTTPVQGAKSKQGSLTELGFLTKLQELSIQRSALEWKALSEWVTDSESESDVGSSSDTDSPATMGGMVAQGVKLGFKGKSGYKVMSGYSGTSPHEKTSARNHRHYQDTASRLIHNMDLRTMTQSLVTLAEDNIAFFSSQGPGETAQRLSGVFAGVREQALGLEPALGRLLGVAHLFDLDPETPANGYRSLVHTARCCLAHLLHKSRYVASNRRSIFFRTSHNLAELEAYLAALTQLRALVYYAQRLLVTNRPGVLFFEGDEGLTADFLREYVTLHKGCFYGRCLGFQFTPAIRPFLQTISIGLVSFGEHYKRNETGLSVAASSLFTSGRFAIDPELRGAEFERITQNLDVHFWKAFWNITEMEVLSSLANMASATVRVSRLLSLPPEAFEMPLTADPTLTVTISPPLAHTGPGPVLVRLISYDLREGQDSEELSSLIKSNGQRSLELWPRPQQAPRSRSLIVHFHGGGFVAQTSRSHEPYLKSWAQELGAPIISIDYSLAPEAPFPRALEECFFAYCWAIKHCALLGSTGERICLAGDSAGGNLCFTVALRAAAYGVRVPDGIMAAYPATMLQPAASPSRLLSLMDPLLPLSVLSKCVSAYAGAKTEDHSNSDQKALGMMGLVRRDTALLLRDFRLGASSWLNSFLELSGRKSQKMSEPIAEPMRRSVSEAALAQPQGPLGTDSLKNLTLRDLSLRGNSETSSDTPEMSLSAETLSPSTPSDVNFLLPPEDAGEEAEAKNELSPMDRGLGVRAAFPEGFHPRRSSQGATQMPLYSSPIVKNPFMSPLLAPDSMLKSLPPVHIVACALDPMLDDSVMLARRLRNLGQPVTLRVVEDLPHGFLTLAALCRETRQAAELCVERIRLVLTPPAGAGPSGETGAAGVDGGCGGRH
# method.description: Human Hormone-Sensitive Lipase (HSL) Enzyme Inhibition Assay
# condition.details: colorimetric assay, 2,3-dimercapto-1-propanol tributyrate (DMPT) substrate, 37° C. for 20 minutes, absorbance at 405 nm; read-out: HSL hum IC50
pIC50: −log10 of the molar value.
value.type: pIC50

Reference set, count: 4
| compound | study.target | value.type | observed.value |
| --- | --- | --- | --- |
| CN(CCc1ccccn1)C(=O)N1CCC2(CC1)CCN(c1ccc(OC(F)(F)F)cc1)C2=O | human HSL (Homo sapiens) | pIC50 | 6.85 |
| O=C(NCCc1ccccc1)N1CCC2(CC1)CCN(c1ccc(OC(F)(F)F)cc1)C2=O | human HSL (Homo sapiens) | pIC50 | 6.85 |
| O=C1N(c2cccnc2)CCC12CCN(S(=O)(=O)c1ccccc1)CC2 | human HSL (Homo sapiens) | pIC50 | 4.59 |
| Cc1nc(Cc2ccc(N3CCC4(CCN(S(=O)(=O)c5ccccc5Cl)CC4)C3=O)cc2)no1 | human HSL (Homo sapiens) | pIC50 | 7.10 |

1 = COc1ccc(CCN2CCC3(CCN(S(=O)(=O)c4ccccc4Cl)CC3)C2=O)cc1
2 = CC(C)(C)CC(=O)N1CCC2(CC1)CCN(c1ccc(C(O)C(C)(F)F)cc1)C2=O (stereo not shown)
Pick one: 1 or 2 . Which one has the lower reported pIC50? Your choice should be expressed through its label.
2

Provenance of the data: patent US8329904B2
